protocol.text: Toxicity liver stage against HepG2, at 10uM
Type: cell-based
Set-up: test concentration 10 uM, cell line HepG2-A16-CD81EGFP
test.context: human, HepG2-A16-CD81EGFP cells; read-out: INHIBITION
readout.name: cytotoxicity at 10 µM (%)
One number for each entry, in %.

Solved cases below.
| molecule | readout.name | measured.number |
| --- | --- | --- |
| CNC(=O)c1cc(OC)c(OC)cc1N(C)S(C)(=O)=O | cytotoxicity at 10 µM | -5.58 |
| CCc1cc(CNC(=O)N2CCN(c3nc(C)c(C)s3)CC2)on1 | cytotoxicity at 10 µM | -11.6 |
| COc1cccc(CN2CCCC3(CCN(C(=O)c4ccco4)C3)C2)c1 (stereo unspecified) | cytotoxicity at 10 µM | 6.34 |
| Cn1cc(NC(=O)NCc2ccsc2)ccc1=O | cytotoxicity at 10 µM | -10.2 |
| CCCNC(=O)c1cc(-c2cnc(N3CCCC3)nc2)cn1C | cytotoxicity at 10 µM | -54.6 |

Next, consider the following molecule.
Value of measured cytotoxicity at 10 µM for the entry CC1CCCCN1C1CN(c2ccnc(C(=O)NCc3ccco3)c2)C1 (stereo unspecified) : 2.29
